Some compounds, each annotated with its measured max response.
# Tested on: NIH3T3
# Protocol description: Cytotoxic Profiling of Annotated Libraries Using Quantitative High-Throughput Screening (AID 1296008); note: % is set by controls: 0 for no effect and ±100 for the full control effect; nearly all actives have a fitted effect of over 60% in size
# Experimental setup: Five cell lines viability, CellTiter-Glo ATP luminescence, 48-72 h; active compounds read low
Results filed as inconclusive are left out. The source made the active and inactive calls. Calls come from the whole dose curve; as a rule, active = well fitted inhibition curve with a large enough effect; inconclusive = small, poorly fitted or top-dose-only effect; inactive = flat fitted curve, though single readings scatter.

Reference set (6 entries):
| Compound | Result |
| --- | --- |
| C=CC/C=C\C/C=C\CCCCCCCc1cccc(O)c1C(=O)O | -1.27% (inactive) |
| C/C1=C\CC[C@]2(C)O[C@@H]2[C@H](O)[C@H](C(C)C)[C@H](OC(=O)/C=C/c2ccccc2)C1 | 2.07% (inactive) |
| C=CC1C(OC2OC(CO)C(O)C(O)C2O)OC=C(C(=O)OC)C1CC1CC(=O)CC(CCc2ccc(O)cc2)O1 (centres undefined) | -7.36% (inactive) |
| C/C=C(/COC(=O)/C(C)=C/C)C(=O)OC(CC)c1ccc(OC)c(OC)c1 (centres undefined) | 1.56% (inactive) |
| CC(=O)c1c(O)cc(O[C@@H]2O[C@H](CO)[C@@H](O)[C@H](O)[C@H]2O)cc1O | 1.77% (inactive) |
| C=C[C@H]1[C@H](O[C@@H]2O[C@H](CO)[C@@H](O)[C@H](O)[C@H]2O)OC=C(C(=O)OC)[C@H]1CCOC(=O)c1cc(O)c(O)c(O)c1 | -1.02% (inactive) |

*Q* What value of max response has been reported for the following compound? C[C@@H]1CC[C@@]2(OC1)O[C@H]1C[C@H]3[C@@H]4CC=C5C[C@@H](O)CC[C@]5(C)[C@H]4CC[C@]3(C)[C@H]1[C@@H]2C
*A* -1.68% (inactive)

*Q* Query (compound): COc1cc2c(cc1OC)CC(=O)N(CCCNC[C@H]1Cc3cc(OC)c(OC)cc31)CC2 ; field requested: max response
*A* -0.121% (inactive)

*Q* Item CN1CCN(C(=O)c2ccc3cc(CCNc4ncnc5ccc(C#N)cc45)ccc3c2)CC1 has what recorded max response?
*A* -2.38% (inactive)
